Biological target: T1, IL13RA2 Protein, Rhesus macaque, His tag (Rhesus macaque, UniProt A0A5F8A9D9 27-343)
T1 construct: the summary sentence says cynomolgous; also called Rhesus macaque IL13R alpha 2 protein with His tag; cynomolgous IL 13RA2 (as the text calls it); not shown: His tag
T1 sequence: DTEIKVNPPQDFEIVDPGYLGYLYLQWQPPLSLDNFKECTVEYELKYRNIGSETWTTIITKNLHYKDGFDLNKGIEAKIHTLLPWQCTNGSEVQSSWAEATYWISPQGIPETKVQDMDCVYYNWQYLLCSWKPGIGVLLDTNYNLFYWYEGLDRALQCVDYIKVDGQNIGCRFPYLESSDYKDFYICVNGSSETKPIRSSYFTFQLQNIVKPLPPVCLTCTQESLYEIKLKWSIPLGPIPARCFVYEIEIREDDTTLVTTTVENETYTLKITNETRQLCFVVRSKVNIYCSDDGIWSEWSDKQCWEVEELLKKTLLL
Test: BLI; biotinylated VHH captured on streptavidin biosensor, antigen 1 uM in solution
MEASUREMENT_LABEL: Binding Response (nm)
Quick reminder: number only, in nm, skip the unit.

{"BINDER": "IL13Ra2_2TIG4_f3 (VHH, biotinylated (site not stated), Expressed in E. coli and 6xHIS purified; also called IL13Ra2_2TIG4_f3-Biotin) VHH: QVQLQESGGGLVQPGGSLRLSCAASGRTYGMGWFRQAPGKEREFVAVGVWSSGNTYYADFARGRFTISRDNAKNTVYLQMDSLKPEDTAVYYCAAPRYSSYTTYHAAYDYWGPGTQVTVSS", "RESULT_NUMBER": 1.17}

# context switch: different binder, same Binding Response
# input Value lookup for Binding Response; key = VH57f5 (VHH, biotinylated (site not stated), Expressed in E. coli and 6xHIS purified; also called VH57f5 Biotin; Anti-IL13Rα2 VH57) VHH: QVQLQESGGGLVQPGGSLRLSCAASGSIFNTNGMGWYRQAPGKQRERVAGISSGGNTVYAASVEGRFTISRDNAKNTGYLQMNNLKPEDTAVYYCRVAGRQDDYWGQGTQVTVSS
# output 0.93
